Data credit: ChEMBL document CHEMBL3988442

# tgt: Aspartate--tRNA(Asp/Asn) ligase (Mycobacterium tuberculosis (strain ATCC 25618 / H37Rv)) (UniProt P9WFW3)
# Sequence (P9WFW3 whole entry): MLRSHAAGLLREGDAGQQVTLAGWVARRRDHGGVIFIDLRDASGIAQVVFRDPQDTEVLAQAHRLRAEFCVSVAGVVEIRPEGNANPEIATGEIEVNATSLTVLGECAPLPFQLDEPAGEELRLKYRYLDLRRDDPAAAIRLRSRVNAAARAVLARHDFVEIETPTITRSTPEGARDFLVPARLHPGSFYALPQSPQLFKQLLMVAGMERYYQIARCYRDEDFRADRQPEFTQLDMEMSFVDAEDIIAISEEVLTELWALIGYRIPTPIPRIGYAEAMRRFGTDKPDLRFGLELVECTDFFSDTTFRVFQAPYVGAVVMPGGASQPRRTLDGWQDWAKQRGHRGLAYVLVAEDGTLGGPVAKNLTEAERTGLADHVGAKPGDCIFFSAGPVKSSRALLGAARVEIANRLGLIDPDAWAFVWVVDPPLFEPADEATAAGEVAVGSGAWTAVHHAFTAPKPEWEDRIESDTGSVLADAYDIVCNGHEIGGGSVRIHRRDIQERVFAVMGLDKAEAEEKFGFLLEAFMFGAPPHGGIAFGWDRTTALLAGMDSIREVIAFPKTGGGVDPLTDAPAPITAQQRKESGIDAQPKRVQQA
# measurement-protocol: Assay for Asp RNA synthetase-1 from Mycobacterium tuberculosis
# Type: functional
# Set-up: scale not given: in the data most compounds retested in dose-response had high values
# details: 30 µM
endpoint-name: Percent Effect (%)

[
  {
    "molecule": "Cc1cccc(CN2CCC3(CCCN(C(=O)c4ccsc4)C3)C2=O)n1 (stereo unspecified)",
    "unit-abbrev": "%",
    "quantitative-result": -2.4
  },
  {
    "molecule": "CCn1c(C)nnc1CN(C)C1CCN(CCc2ccncc2)C1 (stereo unspecified)",
    "unit-abbrev": "%",
    "quantitative-result": 2.19
  },
  {
    "molecule": "CN1CCN(Cc2nnc(C3CCN(CC4CC4)CC3)n2C)CC1",
    "unit-abbrev": "%",
    "quantitative-result": -0.891
  },
  {
    "molecule": "Cc1ccc(N2CCO[C@H]3CN(Cc4ccncc4)C[C@H]32)nn1",
    "unit-abbrev": "%",
    "quantitative-result": 2.28
  },
  {
    "molecule": "Cn1cc(Br)c(=O)c(NS(=O)(=O)c2ccc(F)cc2)c1",
    "unit-abbrev": "%",
    "quantitative-result": -2.87
  },
  {
    "molecule": "COc1ccccc1Oc1ncccc1CNC(=O)[C@@H](C)NC(C)=O",
    "unit-abbrev": "%",
    "quantitative-result": 0.362
  },
  {
    "molecule": "Cc1ccccc1C(=O)CN1C(=O)c2ccccc2CS1(=O)=O",
    "unit-abbrev": "%",
    "quantitative-result": 0.881
  },
  {
    "molecule": "O=C(Cc1ccc2c(c1)OCO2)N1CCN(c2cnccn2)CC1",
    "unit-abbrev": "%",
    "quantitative-result": -3.06
  },
  {
    "molecule": "Cn1ccnc1CN1CCN(Cc2noc(-c3ccccc3)n2)CC1",
    "unit-abbrev": "%",
    "quantitative-result": -2.31
  },
  {
    "molecule": "Cc1ccc(N2CCCC(NCc3ccncc3)C2)nn1 (stereo unspecified)",
    "unit-abbrev": "%",
    "quantitative-result": 0.131
  },
  {
    "molecule": "COc1ccccc1CNC(=O)N1CCCC(NS(C)(=O)=O)C1 (stereo unspecified)",
    "unit-abbrev": "%",
    "quantitative-result": 1.76
  }
]
